Test system: Aspergillus niger
Assay Comment: Antimicrobial activity against Aspergillus niger MTCC 282
Type: functional
Recorded Metric: MIC (µg/mL)

1 = O=C(/C=C/c1cccc(Cl)c1)N1N=C(c2ccc([N+](=O)[O-])cc2)OC1c1cc2ccccc2nc1Cl (stereo not drawn)
2 = O=C(/C=C/c1ccc([N+](=O)[O-])cc1)N1N=C(c2ccc([N+](=O)[O-])cc2)OC1c1cc2ccccc2nc1Cl (stereo not drawn)
3 = O=C(/C=C/c1cccc(O)c1)N1N=C(c2ccc([N+](=O)[O-])cc2)OC1c1cc2ccccc2nc1Cl (stereo not drawn)
4 = O=C(/C=C/c1ccccc1Cl)N1N=C(c2ccc([N+](=O)[O-])cc2)OC1c1cc2ccccc2nc1Cl (stereo not drawn)
Incoming: Please arrange the 4 compounds above from largest to smallest MIC value. Please respond with the labels ordered as the question requires.
Outgoing: 2, 4, 3, 1

P = COc1ccc(/C=C/C(=O)N2N=C(c3ccc([N+](=O)[O-])cc3)OC2c2cc3ccccc3nc2Cl)cc1 (stereo not drawn)
Q = O=C(/C=C/c1ccc(O)cc1)N1N=C(c2ccc([N+](=O)[O-])cc2)OC1c1cc2ccccc2nc1Cl (stereo not drawn)
R = O=C(/C=C/c1ccccc1[N+](=O)[O-])N1N=C(c2ccc([N+](=O)[O-])cc2)OC1c1cc2ccccc2nc1Cl (stereo not drawn)
S = O=C(/C=C/c1ccc(Cl)cc1)N1N=C(c2ccc([N+](=O)[O-])cc2)OC1c1cc2ccccc2nc1Cl (stereo not drawn)
Incoming: Arrange these compounds by their MIC, starting with the largest number. The labels, placed in the requested order, form the answer.
Outgoing: P, R, S, Q

A = Cc1ccc(/C=C/C(=O)N2N=C(c3ccc([N+](=O)[O-])cc3)OC2c2cc3ccccc3nc2Cl)cc1 (stereo not drawn)
B = O=C(/C=C/c1ccccc1O)N1N=C(c2ccc([N+](=O)[O-])cc2)OC1c1cc2ccccc2nc1Cl (stereo not drawn)
Incoming: Param metric = MIC; output whichever of A , B has the minimum value. Field: selected label. Fill in the label of the entry you choose.
Outgoing: A
